Where do these numbers come from? They come from patent US20090192298A1.

Measured Imax emiss accompanies every entry in the list below.
protocol text: Spectral properties (absorbance, fluorescence, quantum yield) of sulfonated BODIPY dyes 6, Table 1
Assay type: physicochemical
experimental conditions: solvent MeOH
Number first, unit second: that is the form wanted.

* Cc1cc(C)n2c1C=C1C(=O)N(C)C(c3ccc([N+](=O)[O-])cc3)=[N+]1[B-]2(F)F | 598 nm
* COc1ccc(C2=[N+]3C(=Cc4c(C)cc(C)n4[B-]3(F)F)C(=O)N2C)cc1 | 521 nm
* Cc1cc(C)n2c1C=C1C(=O)N(C)C(c3ccc(I)cc3)=[N+]1[B-]2(F)F | 532 nm

Lookup: What does the data say about its Imax emiss? Entry: `Cc1c(S(=O)(=O)[O-])c(C)n2c1C=C1C(=O)N(C)C(c3ccc(I)cc3)=[N+]1[B-]2(F)F.[Na+]`
Found: 531 nm

Lookup: # iterate: `Cc1cc(C)n2c1C=C1C(=O)N(C)C(c3ccccc3)=[N+]1[B-]2(F)F`
Found: 521 nm

Lookup: Try this compound next: `Cc1cc(C)n2c1C=C1C(=O)NC(c3ccccc3)=[N+]1[B-]2(F)F`
Found: 531 nm

Lookup: Try `CC1=[N+]2C(=Cc3c(C)cc(C)n3[B-]2(F)F)C(=O)N1C` next.
Found: 485 nm

Lookup: // query: `Cc1c(S(=O)(=O)O)c(C)n2c1C=C1C(=O)N(C)C(c3ccc(C#CCCCC(=O)O)cc3)=[N+]1[B-]2(F)F`
Found: 538 nm

* * *

protocol text: Spectral Properties of 9 in CH2Cl2, Table 3
Assay type: physicochemical
readout: If (nm)
Please give a number only; it is taken to be in nm.

Lookup: Form field: reported If of CC(Nc1c2ccc(=[N+]3CCCCC3)cc-2oc2cc(N3CCCCC3)ccc12)C(=O)OC(C)(C)C.O=S(=O)([O-])C(F)(F)F (stereo not drawn)
Found: 544

Lookup: Try this compound too: `CCN(CC)c1c2ccc(=[N+]3CCCCC3)cc-2oc2cc(N3CCCCC3)ccc12.O=S(=O)([O-])C(F)(F)F`
Found: 558

Lookup: // query: `O=S(=O)([O-])C(F)(F)F.c1ccc(CSc2c3ccc(=[N+]4CCCCC4)cc-3oc3cc(N4CCCCC4)ccc23)cc1`
Found: 619

Lookup: Again, but for CCC(C)Nc1c2ccc(=[N+]3CCCCC3)cc-2oc2cc(N3CCCCC3)ccc12.O=S(=O)([O-])C(F)(F)F (racemic)
Found: 537

Lookup: Continue with COC(=O)C1CCN(c2ccc3c(N4CCCCC4)c4ccc(=[N+]5CCC(C(=O)OC)CC5)cc-4oc3c2)CC1.O=S(=O)([O-])C(F)(F)F (stereo not drawn)
Found: 552

Lookup: Would you kindly repeat that for `O=S(=O)([O-])C(F)(F)F.c1cc2c(N3CCCCC3)c3ccc(=[N+]4CCCCC4)cc-3oc2cc1N1CCCCC1` ?
Found: 562

* * *

protocol text: Spectral properties (absorbance, fluorescence, quantum yield) of sulfonated BODIPY dyes 6, Table 1
Format: physicochemical
experimental conditions: solvent MeOH
Consider the following molecules and their measured Imax abs readings.
Lab book: enter the figure in nm, no units written.

* Cc1c(S(=O)(=O)O)c(C)n2c1C=C1C(=O)N(C)C(c3ccc(C#CCCCC(=O)O)cc3)=[N+]1[B-]2(F)F | 488
* COc1ccc(C2=[N+]3C(=Cc4c(C)cc(C)n4[B-]3(F)F)C(=O)N2C)cc1 | 493

Lookup: // lookup Imax abs for `Cc1cc(C)n2c1C=C1C(=O)N(C)C(c3ccc([N+](=O)[O-])cc3)=[N+]1[B-]2(F)F`
Found: 492
